Molecular target: Hmlalpha2 (UniProt P0CY09)
Sequence: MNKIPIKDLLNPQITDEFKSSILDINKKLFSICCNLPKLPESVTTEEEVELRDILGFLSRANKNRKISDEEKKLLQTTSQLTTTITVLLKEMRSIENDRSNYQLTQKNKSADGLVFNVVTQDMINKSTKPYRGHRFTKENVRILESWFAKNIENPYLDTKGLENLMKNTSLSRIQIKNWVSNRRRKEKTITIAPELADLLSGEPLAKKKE
Assay: PBM E-score (8-mer binding enrichment) (E-score (-0.5 to 0.5)); higher = stronger / more preferred TF binding
Settings: protein concentration: 200 nM; construct: GST-full length
The full ranking holds about 33,000 sequences; the median of “E-score (-0.5 to 0.5)” is about -0.04, and the highest 2% start at about 0.36. This is one part of a sample in which the highest values are shown more often than they occur.
Rule: PBM E-score of 0.06 or more gives true; anything lower gives false.

Polymer Sequence: CGAATGCA
Category Label: true
//
Polymer Sequence: CTGTACAA
Category Label: true
//
Polymer Sequence: GTACGACA
Category Label: true
//
Polymer Sequence: GGAGGCTA
Category Label: false
//
Polymer Sequence: AGTAGATG
Category Label: true
//
Polymer Sequence: AGGCACGC
Category Label: false
//
Polymer Sequence: ACTACGCT
Category Label: true
//
Polymer Sequence: AAGGGCTC
Category Label: false
//
Polymer Sequence: CGGGTCCA
Category Label: false
//
Polymer Sequence: GTATTATA
Category Label: true

## Input Evaluate "ACAACCAT" : PBM E-score at minimum 0.06?
## Output true

## Input Evaluate "ACTTAACG" : PBM E-score at minimum 0.06?
## Output true

## Input Evaluate "AGATGTAG" : PBM E-score at minimum 0.06?
## Output true
